- subject-of-test: ABCG2 (Homo sapiens, UniProt Q9UNQ0)
- Sequence (Q9UNQ0 whole entry): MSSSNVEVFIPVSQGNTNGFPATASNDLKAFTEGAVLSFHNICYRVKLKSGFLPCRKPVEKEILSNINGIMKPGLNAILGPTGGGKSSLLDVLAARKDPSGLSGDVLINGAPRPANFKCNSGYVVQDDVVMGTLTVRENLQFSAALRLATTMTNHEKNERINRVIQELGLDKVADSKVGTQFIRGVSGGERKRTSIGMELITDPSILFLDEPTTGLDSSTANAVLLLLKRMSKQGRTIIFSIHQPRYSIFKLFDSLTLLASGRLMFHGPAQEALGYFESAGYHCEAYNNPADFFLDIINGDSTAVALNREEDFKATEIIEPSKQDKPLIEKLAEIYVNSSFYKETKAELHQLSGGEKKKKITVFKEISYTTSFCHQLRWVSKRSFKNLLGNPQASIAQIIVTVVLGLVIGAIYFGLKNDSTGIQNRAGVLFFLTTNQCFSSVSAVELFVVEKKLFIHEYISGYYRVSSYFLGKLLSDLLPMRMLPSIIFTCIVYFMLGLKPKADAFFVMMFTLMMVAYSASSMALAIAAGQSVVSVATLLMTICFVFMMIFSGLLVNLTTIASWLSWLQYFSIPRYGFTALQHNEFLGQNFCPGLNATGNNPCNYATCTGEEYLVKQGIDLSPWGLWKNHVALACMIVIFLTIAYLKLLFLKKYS
- assay-explanation: Ratio of compound IC50 to elacridar IC50 for ABCG2 in human MCF7/Topo cells after 2 hrs by Hoechst 33342 microplate assay
- Assay type: cell-based
- run-conditions: probe Hoechst 33342, read-out: Ratio IC50
assay-metric: selectivity ratio at 2 h
One number for each entry.

# return selectivity ratio at 2 h for `COc1cc2c(cc1OC)CN(CCc1ccc(NC(=O)c3cc(OC)c(OC)cc3NC(=O)c3cnc4ccccc4c3)cc1)CC2` , test system: ABCG2 (Homo sapiens, UniProt Q9UNQ0)
4

---

- subject-of-test: ABCB1 (Homo sapiens)
- Sequence (P08183 whole entry): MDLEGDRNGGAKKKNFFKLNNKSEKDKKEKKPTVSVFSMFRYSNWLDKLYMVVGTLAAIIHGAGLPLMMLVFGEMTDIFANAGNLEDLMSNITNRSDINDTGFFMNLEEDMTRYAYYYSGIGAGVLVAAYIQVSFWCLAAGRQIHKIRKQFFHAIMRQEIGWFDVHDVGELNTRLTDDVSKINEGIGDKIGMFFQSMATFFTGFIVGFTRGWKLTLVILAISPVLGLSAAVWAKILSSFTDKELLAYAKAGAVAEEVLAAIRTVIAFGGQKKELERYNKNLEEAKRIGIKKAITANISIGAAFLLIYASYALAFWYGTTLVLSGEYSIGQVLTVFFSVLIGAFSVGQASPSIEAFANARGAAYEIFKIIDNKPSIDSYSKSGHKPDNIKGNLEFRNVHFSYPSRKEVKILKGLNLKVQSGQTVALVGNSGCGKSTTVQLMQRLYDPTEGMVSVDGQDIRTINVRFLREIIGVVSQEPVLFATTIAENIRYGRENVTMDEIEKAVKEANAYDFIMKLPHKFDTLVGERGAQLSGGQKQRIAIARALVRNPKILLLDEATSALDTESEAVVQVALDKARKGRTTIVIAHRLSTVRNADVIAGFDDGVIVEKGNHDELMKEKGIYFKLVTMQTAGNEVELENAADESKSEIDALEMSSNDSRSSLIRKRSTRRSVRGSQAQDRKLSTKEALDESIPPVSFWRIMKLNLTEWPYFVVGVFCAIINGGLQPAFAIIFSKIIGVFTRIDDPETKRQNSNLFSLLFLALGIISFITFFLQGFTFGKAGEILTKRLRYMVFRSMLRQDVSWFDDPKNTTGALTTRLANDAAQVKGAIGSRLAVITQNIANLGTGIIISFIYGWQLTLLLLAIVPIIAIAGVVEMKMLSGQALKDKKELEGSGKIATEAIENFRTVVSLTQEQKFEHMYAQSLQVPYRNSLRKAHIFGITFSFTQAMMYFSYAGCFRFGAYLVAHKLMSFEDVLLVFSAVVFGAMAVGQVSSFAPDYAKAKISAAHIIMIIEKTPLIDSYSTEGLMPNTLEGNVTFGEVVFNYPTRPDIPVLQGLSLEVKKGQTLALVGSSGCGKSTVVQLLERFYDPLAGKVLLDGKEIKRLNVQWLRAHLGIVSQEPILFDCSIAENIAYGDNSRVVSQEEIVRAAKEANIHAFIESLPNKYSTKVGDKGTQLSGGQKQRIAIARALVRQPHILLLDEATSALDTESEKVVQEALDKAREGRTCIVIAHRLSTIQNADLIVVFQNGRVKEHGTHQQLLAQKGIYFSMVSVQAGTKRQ
- assay-explanation: Inhibition of ABCB1 in human KBV1 cells after 10 mins by Calcein-AM microplate assay relative to 1 uM tariquidar
- Format: cell-based
- run-conditions: probe calcein-AM
assay-metric: inhibition at 10 min
Returns: string containing the number followed by the unit.

Consider the worked cases shown below.
- smiles-text: "COCCOCCOCCOc1cc2c(cc1OC)CCN(Cc1ccc(-c3ccc(C(=O)OC)c(NC(=O)c4ccc5ccccc5n4)c3)cc1)C2"
  subject-of-test: "ABCB1 (Homo sapiens)"
  inhibition at 10 min: "20%"
- smiles-text: "COCCOCCOCCOc1cc2c(cc1OC)CCN(CCc1ccc(-c3ccc(C(=O)OC)c(NC(=O)c4ccc5ccccc5n4)c3)cc1)C2"
  subject-of-test: "ABCB1 (Homo sapiens)"
  inhibition at 10 min: "50%"

Please report the measured inhibition at 10 min for `COCCOCCOCCOc1cc2c(cc1OCCOCCOCCOC)CN(CCc1ccc(-c3ccc(C(=O)OC)c(NC(=O)c4ccc5ccccc5n4)c3)cc1)CC2` tested on ABCB1 (Homo sapiens).
50%
